System: Trypanosoma cruzi
Experiment Summary: Antitrypanosomal activity against Trypanosoma cruzi Y […] trypomastigotes isolated from infected LLC-MK2 cells assessed as parasite viability after 24 hrs by neubauer chamber analysis
Type: functional
Experimental Conditions: LLC-MK2, 24 h
Decide using CC50 alone. Strictly below 2 µM: TRUE. Equal to or above 2 µM: FALSE.

Molecule: C/C(=N\NC(N)=S)C(C)Oc1ccc(Cl)c(Cl)c1 (stereo unspecified)
Assigned Label: FALSE

Molecule: C/C(=N\NC(N)=S)C(C)Oc1ccccc1 (stereo unspecified)
Assigned Label: FALSE

Molecule: C/C(=N\NC(N)=S)C(C)Oc1ccc(Cl)cc1 (stereo unspecified)
Assigned Label: FALSE

Molecule: C/C(=N\NC(N)=S)C(C)Oc1ccc(C(C)(C)C)cc1 (stereo unspecified)
Assigned Label: TRUE

Molecule: C/C(=N\NC(N)=S)C(C)Oc1ccc(F)cc1 (stereo unspecified)
Assigned Label: FALSE

Molecule: C/C(=N\NC(N)=S)C(C)Oc1ccc(Br)cc1 (stereo unspecified)
Assigned Label: FALSE

Molecule: C/C(=N\NC(N)=S)C(C)Oc1cccc(Cl)c1 (stereo unspecified)
Assigned Label: FALSE

Molecule: COc1cccc(OC(C)/C(C)=N/NC(N)=S)c1 (stereo unspecified)
Assigned Label: FALSE

Molecule: C/C(=N\NC(N)=S)C(C)Oc1cccc(Br)c1 (stereo unspecified)
Assigned Label: FALSE

Molecule: C/C(=N\NC(N)=S)C(C)Oc1cccc(-c2ccccc2)c1 (stereo unspecified)
Assigned Label: TRUE

Molecule: C/C(=N\NC(N)=S)C(C)Oc1ccc([N+](=O)[O-])cc1 (stereo unspecified)
Assigned Label: FALSE

Molecule: C/C(=N\NC(N)=S)C(C)Oc1ccc(C(C)C)cc1 (stereo unspecified)
Assigned Label: TRUE

Molecule: C/C(=N\NC(N)=S)C(C)Oc1ccc(-c2ccccc2)cc1 (stereo unspecified)
Assigned Label: TRUE

Molecule: CC(=O)Nc1ccc(OC(C)/C(C)=N/NC(N)=S)cc1 (stereo unspecified)
Assigned Label: TRUE

Molecule: C/C(=N\NC(N)=S)C(C)Oc1ccc(Oc2ccccc2)cc1 (stereo unspecified)
Assigned Label: TRUE

Molecule: C/C(=N\NC(N)=S)C(C)Oc1ccccc1Cl (stereo unspecified)
Assigned Label: TRUE

Molecule: C/C(=N\NC(N)=S)C(C)Oc1ccccc1-c1ccccc1 (stereo unspecified)
Assigned Label: TRUE

Molecule: COc1ccc(OC(C)/C(C)=N/NC(N)=S)cc1 (stereo unspecified)
Assigned Label: FALSE

Molecule: O=C(Cn1ccnc1[N+](=O)[O-])NCc1ccccc1
Assigned Label: FALSE

Molecule: C/C(=N\NC(N)=S)C(C)Oc1ccc(F)c(Cl)c1 (stereo unspecified)
Assigned Label: FALSE

Molecule: C/C(=N\NC(N)=S)C(C)Oc1ccc(I)cc1 (stereo unspecified)
Assigned Label: TRUE

Molecule: C/C(=N\NC(N)=S)C(C)Oc1ccc2ccccc2c1 (stereo unspecified)
Assigned Label: FALSE

Molecule: C/C(=N\NC(N)=S)C(C)Oc1cccc(Cl)c1Cl (stereo unspecified)
Assigned Label: FALSE

Molecule: CCc1ccc(OC(C)/C(C)=N/NC(N)=S)cc1 (stereo unspecified)
Assigned Label: FALSE

Molecule: CC1CS(=O)(=O)CCN1/N=C/c1ccc([N+](=O)[O-])o1 (stereo unspecified)
Assigned Label: FALSE

Molecule: C/C(=N\NC(N)=S)C(C)Oc1cccc2ccccc12 (stereo unspecified)
Assigned Label: TRUE
